Target Entity: N-type calcium channel (Homo sapiens, UniProt Q00975)
Sequence (Q00975 whole entry): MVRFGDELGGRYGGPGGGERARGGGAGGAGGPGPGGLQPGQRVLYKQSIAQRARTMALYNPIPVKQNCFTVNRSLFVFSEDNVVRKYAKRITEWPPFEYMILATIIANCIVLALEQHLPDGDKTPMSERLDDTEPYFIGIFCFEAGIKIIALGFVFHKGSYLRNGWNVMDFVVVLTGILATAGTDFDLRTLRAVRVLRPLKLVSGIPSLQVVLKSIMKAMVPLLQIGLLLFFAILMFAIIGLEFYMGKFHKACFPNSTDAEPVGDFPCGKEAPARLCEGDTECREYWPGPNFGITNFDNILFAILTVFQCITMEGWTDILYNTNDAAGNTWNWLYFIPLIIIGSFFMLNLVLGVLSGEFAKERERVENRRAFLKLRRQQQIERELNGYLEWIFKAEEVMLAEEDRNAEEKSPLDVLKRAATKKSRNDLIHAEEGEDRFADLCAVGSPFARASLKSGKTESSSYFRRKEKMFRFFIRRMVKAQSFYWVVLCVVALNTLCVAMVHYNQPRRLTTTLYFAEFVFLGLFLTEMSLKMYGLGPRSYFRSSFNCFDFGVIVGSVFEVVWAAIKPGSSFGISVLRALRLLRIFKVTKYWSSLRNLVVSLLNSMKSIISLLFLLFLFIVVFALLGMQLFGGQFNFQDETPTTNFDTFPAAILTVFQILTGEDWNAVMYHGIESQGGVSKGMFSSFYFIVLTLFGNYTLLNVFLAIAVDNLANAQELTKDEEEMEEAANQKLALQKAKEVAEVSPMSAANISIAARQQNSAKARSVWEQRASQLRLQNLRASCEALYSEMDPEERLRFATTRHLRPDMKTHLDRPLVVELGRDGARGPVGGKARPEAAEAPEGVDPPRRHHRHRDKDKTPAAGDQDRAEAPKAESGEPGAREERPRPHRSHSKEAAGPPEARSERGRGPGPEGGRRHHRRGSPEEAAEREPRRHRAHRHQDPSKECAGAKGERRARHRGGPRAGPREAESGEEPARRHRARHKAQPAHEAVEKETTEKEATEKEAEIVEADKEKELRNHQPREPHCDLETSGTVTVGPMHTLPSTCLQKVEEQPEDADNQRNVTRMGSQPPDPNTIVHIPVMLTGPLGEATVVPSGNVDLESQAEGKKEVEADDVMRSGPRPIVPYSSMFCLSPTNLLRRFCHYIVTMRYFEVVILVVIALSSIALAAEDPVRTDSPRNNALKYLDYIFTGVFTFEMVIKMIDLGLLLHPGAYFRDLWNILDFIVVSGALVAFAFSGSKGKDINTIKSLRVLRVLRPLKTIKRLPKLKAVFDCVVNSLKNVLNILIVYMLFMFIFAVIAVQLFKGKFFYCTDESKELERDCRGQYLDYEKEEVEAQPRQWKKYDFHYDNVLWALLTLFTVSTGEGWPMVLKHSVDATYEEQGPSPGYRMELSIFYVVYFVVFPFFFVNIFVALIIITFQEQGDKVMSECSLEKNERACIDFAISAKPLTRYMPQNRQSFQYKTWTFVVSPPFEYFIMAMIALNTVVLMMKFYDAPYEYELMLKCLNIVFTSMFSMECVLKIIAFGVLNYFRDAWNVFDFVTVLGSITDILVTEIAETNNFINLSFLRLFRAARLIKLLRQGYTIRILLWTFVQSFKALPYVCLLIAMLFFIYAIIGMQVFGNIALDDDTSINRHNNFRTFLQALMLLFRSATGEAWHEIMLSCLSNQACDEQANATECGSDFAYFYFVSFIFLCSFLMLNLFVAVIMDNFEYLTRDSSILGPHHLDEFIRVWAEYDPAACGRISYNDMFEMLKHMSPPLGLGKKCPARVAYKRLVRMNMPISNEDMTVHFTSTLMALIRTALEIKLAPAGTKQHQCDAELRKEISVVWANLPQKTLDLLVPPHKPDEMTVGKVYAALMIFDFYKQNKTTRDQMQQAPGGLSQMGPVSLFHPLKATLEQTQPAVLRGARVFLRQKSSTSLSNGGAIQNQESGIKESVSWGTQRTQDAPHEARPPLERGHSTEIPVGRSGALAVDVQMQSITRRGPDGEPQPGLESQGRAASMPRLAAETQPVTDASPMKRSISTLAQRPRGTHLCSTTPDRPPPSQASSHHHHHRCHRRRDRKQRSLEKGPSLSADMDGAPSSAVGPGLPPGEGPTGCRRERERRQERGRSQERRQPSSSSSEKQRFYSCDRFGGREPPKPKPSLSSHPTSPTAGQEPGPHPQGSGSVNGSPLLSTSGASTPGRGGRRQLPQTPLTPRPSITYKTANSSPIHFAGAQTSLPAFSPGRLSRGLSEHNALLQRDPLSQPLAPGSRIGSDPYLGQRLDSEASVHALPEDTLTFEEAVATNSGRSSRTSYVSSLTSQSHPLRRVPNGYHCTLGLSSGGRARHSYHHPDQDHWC
Sequence (P54289 25-1103 partner): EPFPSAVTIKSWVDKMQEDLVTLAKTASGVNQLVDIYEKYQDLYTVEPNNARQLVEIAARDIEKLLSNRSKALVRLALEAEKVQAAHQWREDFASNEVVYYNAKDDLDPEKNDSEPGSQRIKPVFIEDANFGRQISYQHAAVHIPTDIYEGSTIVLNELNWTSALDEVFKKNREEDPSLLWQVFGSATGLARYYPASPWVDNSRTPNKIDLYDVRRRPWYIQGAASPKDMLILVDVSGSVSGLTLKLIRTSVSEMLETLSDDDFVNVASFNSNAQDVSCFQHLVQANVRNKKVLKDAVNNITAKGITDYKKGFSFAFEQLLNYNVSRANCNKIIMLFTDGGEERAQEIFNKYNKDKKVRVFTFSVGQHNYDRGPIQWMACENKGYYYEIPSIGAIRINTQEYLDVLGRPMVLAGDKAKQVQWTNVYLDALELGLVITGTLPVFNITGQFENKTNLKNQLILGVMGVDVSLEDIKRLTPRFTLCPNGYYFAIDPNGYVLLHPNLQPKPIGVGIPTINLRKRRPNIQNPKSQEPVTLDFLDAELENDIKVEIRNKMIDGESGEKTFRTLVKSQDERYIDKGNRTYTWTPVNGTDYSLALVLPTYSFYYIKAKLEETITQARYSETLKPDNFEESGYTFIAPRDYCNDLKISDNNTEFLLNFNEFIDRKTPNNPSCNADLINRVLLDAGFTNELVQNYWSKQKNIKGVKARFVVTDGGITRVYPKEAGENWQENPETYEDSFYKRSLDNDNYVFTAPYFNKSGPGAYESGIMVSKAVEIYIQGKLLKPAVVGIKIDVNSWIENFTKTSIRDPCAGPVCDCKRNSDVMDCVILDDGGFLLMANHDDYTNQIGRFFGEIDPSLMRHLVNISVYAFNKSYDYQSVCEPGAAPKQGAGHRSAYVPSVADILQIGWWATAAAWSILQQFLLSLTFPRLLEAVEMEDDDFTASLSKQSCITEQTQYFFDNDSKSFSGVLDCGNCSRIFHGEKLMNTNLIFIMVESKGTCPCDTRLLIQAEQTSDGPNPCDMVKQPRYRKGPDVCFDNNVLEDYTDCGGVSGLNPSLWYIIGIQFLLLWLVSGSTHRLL
Sequence (P54284 whole entry partner): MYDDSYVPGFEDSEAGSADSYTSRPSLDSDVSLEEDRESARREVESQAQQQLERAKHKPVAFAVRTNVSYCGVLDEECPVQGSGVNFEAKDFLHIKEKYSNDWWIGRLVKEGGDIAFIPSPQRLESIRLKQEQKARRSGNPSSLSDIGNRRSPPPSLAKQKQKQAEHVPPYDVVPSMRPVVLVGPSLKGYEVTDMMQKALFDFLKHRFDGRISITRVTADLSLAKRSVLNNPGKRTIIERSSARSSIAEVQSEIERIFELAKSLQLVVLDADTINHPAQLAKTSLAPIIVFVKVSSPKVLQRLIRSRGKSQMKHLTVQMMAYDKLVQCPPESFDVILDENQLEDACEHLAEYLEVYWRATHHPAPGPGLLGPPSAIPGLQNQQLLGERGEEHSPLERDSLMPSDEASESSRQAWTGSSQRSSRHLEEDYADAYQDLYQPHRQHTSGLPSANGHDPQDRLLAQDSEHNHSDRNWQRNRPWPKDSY
Experiment Summary: N-Channel FLIPR assay (IMR32 cells, 80 mM K+ evoked calcium flux)
Condition Info: unit inferred
As shown below, each of these molecules has a reported pIC50 value.
Scale note: pIC50 = -log10(concentration in M).

Use these answered entries as a reference point.
> print(dat)
                           structure.string  quantitative.readout
1  CNc1cc(-c2cccc(F)c2)nc2ccc(-c3ccccc3C=O)cc12                  5.27
2  CNc1cc(-c2cccc(F)c2)nc2ccc(-c3ccccc3Cl)cc12                  4.98
3  CNc1cc(-c2cccc(F)c2)nc2ccc(-c3ccccc3C)cc12                  5.05
4  CNc1cc(-c2cccc(F)c2)nc2ccc(-c3ccccc3OC)cc12                  5.24

IN: Identify measured pIC50 corresponding to "CNc1cc(-c2cccc(F)c2)nc2ccc(-c3ccccc3)cc12"
OUT: 5.07
